biological target: Flap endonuclease 1 (Homo sapiens); assay: qHTS Assay for the Inhibitors of Human Flap endonuclease 1 (FEN1).; further: nearly all actives have a fitted effect of over 65% in size; settings: Recombinant FEN1 flap cleavage, fluorescence, 15 min; series mostly up to 114 µM
Out of some 390,000 compounds screened, about 1,400 (0.36%) were called active. Not shown: some 2% with an inconclusive outcome. Many of the other results were omitted from the sample, so actives are more common in it than they were.
attribute measured: outcome

>>> print(df.to_string())
                            molecule_smiles  attribute_measured  test_value
0  NS(=O)(=O)c1ccc(NC(=O)CSc2nnc3c(n2)[nH]c2ccccc23)cc1             outcome    inactive
1     Cc1ccc(-c2cc(N)n(Cc3cccc(Cl)c3)n2)cc1             outcome    inactive
2  CN1CCN(/[N+]([O-])=N/Oc2ccc([N+](=O)[O-])cc2[N+](=O)[O-])CC1             outcome    inactive
